Source: patent US9090628B2

Known pIC50 of a selection of molecules
- Target Or System: p110 delta (Homo sapiens (Human), UniProt O00329)
- Sequence (O00329 whole entry, canonical isoform): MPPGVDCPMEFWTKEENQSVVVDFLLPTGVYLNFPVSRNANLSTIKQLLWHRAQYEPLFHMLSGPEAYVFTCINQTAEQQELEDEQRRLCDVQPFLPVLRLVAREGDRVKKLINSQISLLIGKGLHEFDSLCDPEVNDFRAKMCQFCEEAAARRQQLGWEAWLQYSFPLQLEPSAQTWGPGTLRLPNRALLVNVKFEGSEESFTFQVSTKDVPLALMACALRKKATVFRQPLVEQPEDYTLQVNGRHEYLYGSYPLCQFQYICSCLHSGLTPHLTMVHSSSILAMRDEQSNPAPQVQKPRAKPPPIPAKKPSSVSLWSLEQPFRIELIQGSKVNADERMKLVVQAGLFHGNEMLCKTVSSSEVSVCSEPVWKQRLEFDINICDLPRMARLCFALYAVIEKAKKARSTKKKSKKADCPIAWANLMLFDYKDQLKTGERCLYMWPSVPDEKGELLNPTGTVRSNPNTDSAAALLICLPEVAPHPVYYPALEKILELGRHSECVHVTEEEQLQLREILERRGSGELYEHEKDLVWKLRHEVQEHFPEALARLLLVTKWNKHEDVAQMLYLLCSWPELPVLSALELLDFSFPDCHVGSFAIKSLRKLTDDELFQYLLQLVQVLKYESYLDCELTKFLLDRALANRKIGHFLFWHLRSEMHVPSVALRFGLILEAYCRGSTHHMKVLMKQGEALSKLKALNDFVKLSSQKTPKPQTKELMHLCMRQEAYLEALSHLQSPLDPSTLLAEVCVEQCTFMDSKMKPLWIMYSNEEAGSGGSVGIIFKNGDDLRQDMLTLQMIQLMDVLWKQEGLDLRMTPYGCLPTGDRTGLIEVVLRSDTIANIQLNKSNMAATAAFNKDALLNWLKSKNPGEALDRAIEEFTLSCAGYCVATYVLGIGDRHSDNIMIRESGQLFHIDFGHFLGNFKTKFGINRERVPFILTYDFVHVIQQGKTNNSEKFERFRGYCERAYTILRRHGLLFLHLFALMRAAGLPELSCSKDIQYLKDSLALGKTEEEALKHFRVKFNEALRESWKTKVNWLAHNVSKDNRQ
- Sequence (P27986 whole entry partner, canonical isoform): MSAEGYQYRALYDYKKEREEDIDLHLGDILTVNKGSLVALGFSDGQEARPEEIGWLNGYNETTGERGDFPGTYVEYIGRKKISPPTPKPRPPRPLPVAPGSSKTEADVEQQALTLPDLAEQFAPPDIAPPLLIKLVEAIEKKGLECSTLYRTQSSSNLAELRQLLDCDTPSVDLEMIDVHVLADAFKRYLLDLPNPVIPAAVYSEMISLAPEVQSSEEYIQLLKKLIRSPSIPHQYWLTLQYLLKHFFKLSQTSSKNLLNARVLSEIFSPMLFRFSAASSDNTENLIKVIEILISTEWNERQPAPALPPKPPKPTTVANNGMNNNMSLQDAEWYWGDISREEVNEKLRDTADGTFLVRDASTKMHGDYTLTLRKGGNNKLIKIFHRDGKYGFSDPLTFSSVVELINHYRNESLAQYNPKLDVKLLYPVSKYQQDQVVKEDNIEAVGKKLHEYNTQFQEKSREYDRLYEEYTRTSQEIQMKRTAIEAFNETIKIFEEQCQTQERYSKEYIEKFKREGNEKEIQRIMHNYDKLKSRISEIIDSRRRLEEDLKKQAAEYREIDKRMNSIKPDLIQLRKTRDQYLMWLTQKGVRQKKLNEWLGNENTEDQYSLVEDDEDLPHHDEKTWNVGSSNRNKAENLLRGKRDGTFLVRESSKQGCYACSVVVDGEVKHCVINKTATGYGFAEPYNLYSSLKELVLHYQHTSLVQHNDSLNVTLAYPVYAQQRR
- Method Notes: PI3K isoform inhibition assay, p110 delta (fluorescence polarization displacement)
Worth noting: pIC50 values are minus log10 of concentrations stated in mol/L.

Here is how some molecules turned out for pIC50.
>>> measured_number("Cc1nc(-c2cn3c(n2)-c2ccc(-c4cn[nH]c4C4CCCN(C(C)C)C4)cc2OCC3)n(C(C)C)n1 (stereo not drawn) [Example 361]")
9.01
>>> measured_number("CC(C)n1nc(N)nc1-c1cn2c(n1)-c1ccc(-c3ccnn3C3CCN(C)CC3)cc1OCC2 [Example 298]")
9.15

Below: the item to evaluate.
Exam item: What value of measured pIC50 is listed for CC(C)n1ncnc1-c1cn2c(n1)-c1cc([S+]([O-])C3CCN(C(C)(C)C)CC3)ccc1OCC2 (stereo not drawn) [Example 270] ?
Marked response: 9.09
